Data origin, for the record: paper PMC8126888

- ASSAY: in vitro
- ASSAY_SETUP: PAMPA
QUANTITY: Papp (×10⁻⁶ cm/s)

{"MOLECULE": "N#Cc1ccc(O)c(S(=O)(=O)N(Cc2ccc(F)cc2)Cc2ccc(F)cc2)c1 [DNDI0003389125]", "NUMBER": 13.2}
{"MOLECULE": "COc1ccc(C(=O)N2CCOCC2)cc1S(=O)(=O)N(Cc1ccccc1)Cc1cnc(C(F)(F)F)nc1 [DNDI0003425509]", "NUMBER": 15.2}
{"MOLECULE": "COc1ccc(Cl)cc1S(=O)(=O)N(Cc1ccccc1)C(CO)CO [DNDI0003389933]", "NUMBER": 13.2}
{"MOLECULE": "COc1ccc(Cl)cc1S(=O)(=O)N(Cc1ccccc1)C1COC(=O)OC1 [DNDI0003392146]", "NUMBER": 13.2}
